Answer each item with its documented pKd.
- testedOn: T1, GFP-9S library array, motif 4 ND N98G;D124Y (synthetic construct, N98G;D124Y)
- T1 chain: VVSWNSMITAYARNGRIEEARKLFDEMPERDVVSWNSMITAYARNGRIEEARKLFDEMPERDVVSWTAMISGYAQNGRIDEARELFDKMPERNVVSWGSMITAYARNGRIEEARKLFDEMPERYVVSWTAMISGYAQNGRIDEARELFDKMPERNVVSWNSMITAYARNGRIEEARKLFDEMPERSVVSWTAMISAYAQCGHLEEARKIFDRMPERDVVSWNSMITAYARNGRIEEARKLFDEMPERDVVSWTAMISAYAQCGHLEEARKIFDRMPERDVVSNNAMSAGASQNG
- methodSummary: high-throughput RNA pulldown from lysate on Ni-NTA beads; HRP: 50 mM Tris pH 8, 150 mM NaCl, 1 mM beta-mercaptoethanol, 50 ug/ml BSA, 3 ug/ml yeast RNA, 0.5% heparin; ITC and FP: Tris pH 8, 200 mM KCl, 5% glycerol; MST: 50 mM Tris pH 8, 200 mM NaCl, 1 mM DTT, BSA, heparin, 0.05% Tween 20
- experimentalContext: tags: N-terminal His-eGFP; label: 5' IRDye 800CW
Scale: negative log10 of molar concentration, which is what pKd denotes.

Identify measured pKd corresponding to AUUAAACGUGA (ssRNA) [IR-rpoA-A]
6.26

Identify measured pKd corresponding to AUUAUACGUGA (ssRNA) [IR-rpoA-U]
6.24
